- target.under.test: fusion protein PRY
- Sequence (chain, as listed by the source): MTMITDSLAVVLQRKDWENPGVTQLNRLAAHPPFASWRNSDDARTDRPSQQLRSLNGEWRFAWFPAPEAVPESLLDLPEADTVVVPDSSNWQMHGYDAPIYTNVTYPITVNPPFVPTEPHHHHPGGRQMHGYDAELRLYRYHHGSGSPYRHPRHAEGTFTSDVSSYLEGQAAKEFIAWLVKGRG
quantity.name: relative cleavage efficiency

Data request: Endpoint output: relative cleavage efficiency of OmpT protease variant OmpT D97T (protein) STETLSFTPDNINADISLGTLSGKTKERVYLAEEGGRKVSQLDWKFNNAAIIKGAINWDLMPQISIGAAGWTTLGSRGGNMVDQDWMDSSNPGTWTTESRHPDTQLNYANEFDLNIKGWLLNEPNYRLGLMAGYQESRYSFTARGGSYIYSSEEGFRDDIGSFPNGERAIGYKQRFKMPYIGLTGSYRYEDFELGGTFKYSGWVESSDNDEHYDPGKRITYRSKVKDQNYYSVAVNAGYYVTPNAKVYVEGAWNRVTNKKGNTSLYDHNNNTSDYSKNGAGIENYNFITTAGLKYTF . Value?
Data returned: < 3%
